Consider the following compounds; for each one, report its pKd.
Target: GDP-bound KRAS wild-type protein (Homo sapiens)
Sequence (P01116 whole entry): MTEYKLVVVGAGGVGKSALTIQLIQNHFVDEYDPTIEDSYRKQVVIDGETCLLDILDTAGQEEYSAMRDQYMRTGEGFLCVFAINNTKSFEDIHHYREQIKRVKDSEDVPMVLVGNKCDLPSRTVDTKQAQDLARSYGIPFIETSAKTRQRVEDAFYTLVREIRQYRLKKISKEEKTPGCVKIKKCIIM
Assay: Binding to KRAS by surface plasmon resonance (SPR), Single Cycle Kinetics
Details: SPR, Single Cycle Kinetics, 1:1 binding model; GDP-bound KRAS wild-type protein; read-out: KRAS KD
Give bare numbers, as −log10 of the molar value.

Would you please look over these solved cases?
CCO[C@@H]1C[C@H]2C(=O)NC3(CCC3)C(=O)N(C)[C@@H](C3CCCC3)C(=O)N(C)[C@H](C(=O)N(C)CCOC)CC(=O)N(C)[C@@H](CC3CC3)C(=O)N[C@@H]([C@@H](C)CC)C(=O)N(C)CC(=O)N(C)[C@H]3C/C=C\CCN(C3=O)[C@@H](Cc3ccc(C(F)(F)F)cc3)C(=O)N(C)CC(=O)N[C@@H](CCc3cc(F)c(C(F)(F)F)c(F)c3)C(=O)N2C1 ... 10.04
CCO[C@@H]1C[C@H]2C(=O)NC3(CCC3)C(=O)N(C)[C@@H](C3CCCC3)C(=O)N(C)[C@H](C(=O)N3CCOCC3)CC(=O)N(C)[C@@H](CC(C)C)C(=O)N[C@@H]([C@@H](C)CC)C(=O)N3CC[C@H]3C(=O)N(C)[C@H]3CC[C@@H](C)CN(C3=O)[C@@H](Cc3ccc(C(F)(F)F)cc3)C(=O)N(C)CC(=O)N[C@@H](CCc3ccc(C(F)(F)F)c(Cl)c3)C(=O)N2C1 ... 9.54

With those in mind, consider the next compound.
Lab note: need pKd for CCO[C@@H]1C[C@H]2C(=O)NC3(CCC3)C(=O)N(C)[C@@H](C3CCCC3)C(=O)N(C)[C@H](C(=O)N3CCOCC3)CC(=O)N(C)[C@@H](CC)C(=O)N[C@@H]([C@@H](C)CC)C(=O)N(C)CC(=O)N(C)[C@H]3CC[C@@H](C)CN(C3=O)[C@@H](Cc3ccc(C(F)(F)F)cc3)C(=O)N(C)CC(=O)N[C@@H](CCc3ccc(C(F)(F)F)c(Cl)c3)C(=O)N2C1 on GDP-bound KRAS wild-type protein (Homo sapiens), anyone have it?
10.09
